Listed here: items and their measured IC50.
system: A549; assay: Cytotoxicity against human A549 cells after 2 days by MTT assay; format: functional, cell-based; conditions: A549, 48 h
A number alone suffices; assume µM.

| mol smiles | IC50, µM |
| --- | --- |
| CCCCCC/C=C\CC/C=C/C[C@H](O)[C@H](C)N | 7.81 |
| C=CCCCC/C=C/C=C/C[C@H](O)[C@H](C)N | 14.7 |

Task: Request the reported IC50 associated with COc1cccc2c1C(=O)c1c(O)c3c(c(O)c1C2=O)C[C@@](O)(C(=O)CO)C[C@@H]3O[C@H]1C[C@H](N)[C@H](O)[C@H](C)O1
Result: 0.459
